Entry source: PubChem BioAssay (NCI)

system: SF-295 CNS; assay: NCI-60 one-dose screen, 48 h (100 = growth as untreated, 0 = no growth, -100 = all killed); details: 10 µM
Compounds without any hit were thinned out: in the full panel of roughly 83,000, 20% have a hit.
ATTRIBUTE MEASURED: growth (%)
Numbers only, in %.

COc1ccc2[nH]c(=O)c(CSc3ccc(Nc4nccc(-c5ccc(Cl)cc5)n4)cc3)cc2c1 : 102
C=C(c1ccc(OC)c(N)c1)c1cc(C)nc2ccccc12 : 6.83
CC1(C)CC[C@]2(C(=O)NCCCNCCCCNCCCN)CC[C@]3(C)C(=CC[C@@H]4[C@@]5(C)Cc6c([nH]c7ccccc67)C(C)(C)[C@@H]5CC[C@]43C)[C@H]2C1 : 98.5

Batch: growth for all items listed.
1. CC(C)C1=C[C@@]23CC[C@@H]4[C@](C)(CCC[C@]4(C)C(=O)NCc4ccccc4)[C@H]2C[C@@H]1[C@H]1C(=O)OC(=O)[C@H]13
2. CCOc1ccc(Nc2nc3ccccc3nc2Nc2ccc(OCC)cc2)cc1
3. COc1ccc(C(=O)/C=C/c2ccc(Cl)c(C(F)(F)F)c2)cc1S(N)(=O)=O
4. CCN1CCN(c2ccc(NC(=O)Nc3ccc4c(c3F)CCN4c3ccnc(C(=O)NC)c3)cc2C(F)(F)F)CC1
5. NS(=O)(=O)c1ccc(N=Nc2c(O)n(CC(=O)Nc3ccccc3Br)c3ccccc23)cc1

17.8
43.3
-100
-74.1
25.8

----------
Consider the following molecules; for each one, report its growth.
tested on: SK-MEL-5 melanoma; assay: NCI-60 one-dose screen, 48 h (100 = growth as untreated, 0 = no growth, -100 = all killed); details: 10 µM
This is part of a sample that, as a whole, favours compounds with a hit. Of some 83,000 tested, about 20% had one in any assay.
Numbers only, in %.

C#CCNC(=O)CCC(=O)OC[C@]12CC[C@@H](C(=C)C)[C@@H]1C1CC[C@@H]3[C@@]4(C)CCCNC(C)(C)[C@@H]4CC[C@@]3(C)[C@]1(C)CC2 (some centres not stated) : -100
COc1ccc2[nH]c(=O)c(CSc3cccc(N)c3)cc2c1 : 6.41
CN1CCN(Cc2ccc(C(=O)Nc3cccc(Nc4ccc5cc(O)ccc5n4)c3)cc2C(F)(F)F)CC1 : -99.7
COc1ccc2nc(Cl)c(-c3cc(-c4ccccc4)nc(N)n3)cc2c1 : 66
CC(=O)c1ccc(Nc2nc(SC(C)C)nc(-c3ccccc3)c2C#N)cc1 : 38.1

Batch: growth for all items listed.
1. CCCn1c(=O)c2[nH]c(-c3ccc(OCc4nc5ccccc5[nH]4)cc3)nc2n(CCC)c1=O
2. Cc1cccc2cc(-c3cc(-c4ccccc4)nc(=O)[nH]3)c(Cl)nc12
3. O=C(c1ccc(O)cc1)C1[C@H](c2ccc(Br)cc2)[C@@H](c2ccccc2)NC12C(=O)Nc1ccc(Br)cc12 (some centres not stated)
4. Cc1ccc(NC(=O)NCn2c(=O)[nH]c3ccccc3c2=O)cc1
5. COc1cc2c(cc1OC)CN(CCCCOc1cc(O)c3c(=O)cc(-c4ccccc4)oc3c1)CC2
6. COc1ccc(/C=N/N=C(\C)c2ccc3c(c2)Nc2ccccc2S3)cc1O
7. CC(=O)Nc1nc(-c2ccc(N3CCN(C)CC3)c(NS(=O)(=O)c3ccc(C(F)(F)F)cc3)c2)cs1

[44.6, 96.3, -76.7, 85.1, 17.1, -23.5, 7.11]

Batch: growth for all items listed.
1. CC1(C)CC[C@]2(C(=O)NCCCNCCCCNCCCN)CC[C@]3(C)C(=CC[C@@H]4[C@@]5(C)Cc6c([nH]c7ccccc67)C(C)(C)[C@@H]5CC[C@]43C)[C@H]2C1
2. CC1CC(c2ccc(N(C)C)cc2)=NN1c1nc(O)c(C2=c3cc(Br)ccc3=NC2=O)s1 (configuration not stated)

1. 81.5
2. 73.5

Batch: growth for all items listed.
1. N#Cc1c(NC(=O)c2ccc(C(F)(F)F)cc2)sc2c1CCC(O)=C2
2. CN1CCc2c(sc3ncnc(N/N=C/c4cn(-c5ccccc5)nc4-c4ccc(Br)cc4)c23)C1
3. C=CC(=O)Nc1ccc(C(=O)/C=C/c2ccc(N(C)CCF)cc2)c(O)c1
4. CC1(C)CC[C@]2(C(=O)Nc3ccccc3)CC[C@]3(C)C(=CC[C@@H]4[C@@]5(C)CC[C@H](N)C(C)(C)[C@@H]5CC[C@]43C)[C@H]2C1
5. COc1ccc(/C(C)=N/N=C2C(=O)N(C)c3ccc(Br)cc32)cc1S(N)(=O)=O

[-28.8, 50, -90.7, 94.5, 88.2]

Batch: growth for all items listed.
1. Cc1ccc(C(=O)NNC(=O)CSc2nc3ccccc3c(=O)[nH]2)cc1
2. CCN1CCN(c2ccc(NC(=O)Nc3ccc(-c4cc(C(=O)NC)c5ncccc5n4)cc3)cc2C(F)(F)F)CC1
3. Cc1ccc(S(=O)(=O)c2nc(-c3ccccc3)oc2S(=O)(=O)CC(=O)N2CCCC2)cc1
4. CNCc1cccc2c1OCCCCCC[C@@](C)(O)CC1(CC1)S(=O)(=O)c1ccc(cc1)-c1cnc(N)c(n1)C(=O)N2
5. CC(=O)NNc1ccc2nnc(-c3ccc(Br)cc3)n2n1
6. CCCCSc1nc(Nc2ccc(/C(C)=N/NC(N)=S)cc2)c(C#N)c(-c2ccc(F)cc2)n1
7. Cc1ccc(C(=O)CSc2nnc(-c3c[nH]c4ccccc34)n2-c2ccccc2)cc1

[98.7, -100, 26.5, -100, 95.4, 75, 32.9]

Batch: growth for all items listed.
1. O=C(Nc1cc(Cl)cc(Cl)c1)Nc1cc(Cl)cc(Cl)c1
2. NS(=O)(=O)c1ccc(NC(=O)CSc2ccc(-c3ccc(Cl)cc3)nn2)c(Br)c1
3. C=C1CCC2C3(C)COC(c4cccc(F)c4)OC3CCC2(C)C1CC(O)C1=CCOC1=O (configuration not stated)
4. Nc1nnc(-c2c[nH]c3ccc(F)cc23)c(-c2c[nH]c3ncccc23)n1
5. O=C(N/N=C/c1ccc(B(O)O)o1)c1[nH]c2ccc(Br)cc2c1-c1ccccc1
6. Nc1nc(-c2ccccc2)cc(-c2cc3ccccc3nc2Cl)n1
7. COc1cccc(/C=C2\N=C(C)N(CCc3ccc(S(N)(=O)=O)cc3)C2=O)c1

-100
68.8
60.1
63.7
11.5
92.9
102

Batch: growth for all items listed.
1. COc1cccc2nc(Nc3ccc(F)c(NC(=O)c4ccc(CN5CCN(C)CC5)c(C(F)(F)F)c4)c3)ccc12
2. O/N=C(\CSc1nnc(-c2c[nH]c3ccccc23)n1-c1ccccc1)c1ccc(Cl)cc1

[-94.9, 21.2]

Batch: growth for all items listed.
1. OCc1[nH]nc2cc(Nc3ncc4ccc(Br)c(OC5CCC(O)CC5)c4n3)ccc12 (configuration not stated)
2. CN1C(=O)/C(=C/c2nccs2)SC1=S

1. -99.1
2. 96.6
